# Assay target: Sphingomyelin phosphodiesterase (Homo sapiens)
# Protocol description: Compound was evaluated as a substrate for human placental acidic sphingomyelinase utilizing the usual substrate C14-labeled sphingomyelin.
Measured metric: Cleavage rate (nM U-1 hr-1)
Express your answer in nM U-1 hr-1, writing the number without its unit.

{"Line notation": "CCCCCCCCCCCCC/C=C/[C@@H](O)[C@H](COP(=O)([O-])OCC[N+](C)(C)C)NC(=O)CCCCCCCCCCCCCCCCCCC", "Cleavage rate, nM U-1 hr-1": 1.72}
{"Line notation": "CCCCCCCCCCCCC/C=C/[C@@H](O)[C@H](COP(=O)(O)OCC[N+](C)(C)CCNS(=O)(=O)c1cccc2c(N(C)C)cccc12)NC(=O)CCCCCCCCCCCCCCCCCCC", "Cleavage rate, nM U-1 hr-1": 1.32}
{"Line notation": "CCCCCCCCCCCCC/C=C/[C@@H](O)[C@H](COP(=O)(O)OCCCCNS(=O)(=O)c1cccc2c(N(C)C)cccc12)NC(=O)CCCCCNC(=O)CCCC[C@@H]1SC[C@@H]2NC(=O)N[C@@H]21", "Cleavage rate, nM U-1 hr-1": 0.51}

API: the following record is the query input.
Challenge: Give its Cleavage rate value. Item: `CCCCCCCCCCCCC/C=C/[C@@H](O)[C@H](COP(=O)(O)OCCCCCCNc1ccc([N+](=O)[O-])c2nonc12)NC(=O)CCCCCNC(=O)CCCC[C@@H]1SC[C@@H]2NC(=O)N[C@@H]21`
Response given: 0.29
